Field: relative viability. Provide a value for each of the molecules that follow.
Test system: LCLC-103H
Assay details: relative viability (nuclei count vs DMSO), 5 days (fraction); higher = more cells survive
Condition summary: first compound 0.1581 µM
Answers are plain numbers.

Here is how some molecules turned out for relative viability.
{"Molecule": "Nc1ccn([C@@H]2O[C@H](CO)[C@@H](O)[C@@H]2O)c(=O)n1 [Cytarabine] + COc1cccc2cc(-c3nc([C@H]4CC[C@H](C(=O)O)CC4)n4ncnc(N)c34)[nH]c12 [OSI-027] (partner 0.5 µM)", "Test system": "LCLC-103H", "Endpoint": "relative viability", "Value reported": 0.418}
{"Molecule": "Nc1ccn([C@@H]2O[C@H](CO)[C@@H](O)[C@@H]2O)c(=O)n1 [Cytarabine] + Cc1nc(NC(=O)N2CCC[C@H]2C(N)=O)sc1-c1ccnc(C(C)(C)C(F)(F)F)c1 [Alpelisib] (partner 2 µM)", "Test system": "LCLC-103H", "Endpoint": "relative viability", "Value reported": 0.967}
{"Molecule": "Nc1ccn([C@@H]2O[C@H](CO)[C@@H](O)[C@@H]2O)c(=O)n1 [Cytarabine] + Nc1nc2[nH]cc(CCc3ccc(C(=O)N[C@@H](CCC(=O)O)C(=O)O)cc3)c2c(=O)[nH]1 [Pemetrexed] (partner 0.2 µM)", "Test system": "LCLC-103H", "Endpoint": "relative viability", "Value reported": 0.422}

Next item in the queue.
Request: Consider the molecule COc1cc2nccc(Oc3ccc(NC(=O)Nc4cc(C)on4)c(Cl)c3)c2cc1OC [Tivozanib] + C[C@@H](Oc1cc(-c2cnn(C3CCNCC3)c2)cnc1N)c1c(Cl)ccc(F)c1Cl [Crizotinib] (partner 1 µM) and give its recorded relative viability.
Result: 1.03

---

System: NCI-H1437
Assay details: relative viability (nuclei count vs DMSO), 5 days (fraction); higher = more cells survive
Condition summary: first compound 2.53 µM
Endpoint: relative viability
Give bare numbers.

Here is how some compounds turned out for relative viability.
{"Compound": "O=c1[nH]c2ccccc2n1C1CCN(CCCC(c2ccc(F)cc2)c2ccc(F)cc2)CC1 [Pimozide] + Cc1nc(NC(=O)N2CCC[C@H]2C(N)=O)sc1-c1ccnc(C(C)(C)C(F)(F)F)c1 [Alpelisib] (partner 2 µM)", "relative viability": 0.862}
{"Compound": "Cc1cnc(-c2cnc(NCCNc3ccc(C#N)cn3)nc2-c2ccc(Cl)cc2Cl)[nH]1 + C[C@]1(O)C[C@@H](c2nc(-c3ccc4ccc(-c5ccccc5)nc4c3)c3c(N)nccn32)C1 [Linsitinib] (partner 1 µM)", "relative viability": 1.04}

Next item in the queue.
Request: Consider the compound Cc1cnc(-c2cnc(NCCNc3ccc(C#N)cn3)nc2-c2ccc(Cl)cc2Cl)[nH]1 + Cc1nc(NC(=O)N2CCC[C@H]2C(N)=O)sc1-c1ccnc(C(C)(C)C(F)(F)F)c1 [Alpelisib] (partner 2 µM) and give its recorded relative viability.
Result: 0.918

---

Field: relative viability. Provide a value for each of the compounds that follow.
System: NCI-H520
Assay details: relative viability (nuclei count vs DMSO), 5 days (fraction); higher = more cells survive
Condition summary: first compound 0.04 µM
Numbers only.

Here is how some compounds turned out for relative viability.
{"Compound": "Cc1sc2c(c1C)C(c1ccc(Cl)cc1)=N[C@@H](CC(=O)OC(C)(C)C)c1nnc(C)n1-2 [JQ1] + C[C@@H](Oc1cc(-c2cnn(C3CCNCC3)c2)cnc1N)c1c(Cl)ccc(F)c1Cl [Crizotinib] (partner 1 µM)", "Value reported": 0.97}
{"Compound": "Cc1sc2c(c1C)C(c1ccc(Cl)cc1)=N[C@@H](CC(=O)OC(C)(C)C)c1nnc(C)n1-2 [JQ1] + CC(=O)c1c(C)c2cnc(Nc3ccc(N4CCNCC4)cn3)nc2n(C2CCCC2)c1=O [Palbociclib] (partner 0.5 µM)", "Value reported": 0.197}
{"Compound": "Cc1sc2c(c1C)C(c1ccc(Cl)cc1)=N[C@@H](CC(=O)OC(C)(C)C)c1nnc(C)n1-2 [JQ1] + COc1cccc2cc(-c3nc([C@H]4CC[C@H](C(=O)O)CC4)n4ncnc(N)c34)[nH]c12 [OSI-027] (partner 0.5 µM)", "Value reported": 0.211}

Next item in the queue.
Request: Consider the compound Cc1sc2c(c1C)C(c1ccc(Cl)cc1)=N[C@@H](CC(=O)OC(C)(C)C)c1nnc(C)n1-2 [JQ1] + Nc1nc2[nH]cc(CCc3ccc(C(=O)N[C@@H](CCC(=O)O)C(=O)O)cc3)c2c(=O)[nH]1 [Pemetrexed] (partner 0.2 µM) and give its recorded relative viability.
Result: 0.565
